Data origin: PubChem BioAssay (NCI)

# Tested on: CCRF-CEM leukemia
# assay-summary: NCI tumour cell line growth inhibition, 48 h; in the data active means GI50 below about 0.43 µM; inactive means the rest
Can you answer with just one of these options? active, inactive

Reference set, count: 5
COc1ccccc1-c1c(C)nn2c(NCc3ccccn3)cc(C)nc12: inactive
CC(C)OC(=O)c1ccc2[nH]c(O)c(C(=Nc3ccc(N(C)C(=O)CN4CCN(C)CC4)cc3)c3ccccc3)c2c1: active
O=c1oc2ccc(Cl)cc2c(=O)n1-c1ccc(I)cc1F: inactive
Clc1ccc2nc(Oc3ccccc3)cnc2c1: inactive
C=C(C)CCC(C)N1CCC(N2CCC(C(=O)NCCc3ccccc3)CC2)CC1 (stereo unspecified): inactive

Could you now consider this next compound?
Please share the test call associated with `Oc1cc(Cl)ccc1Oc1ccc(Cl)cc1Cl` .
inactive

---

// values below are reported TGI
# System: HCT-116 colon
# assay-summary: NCI tumour cell line growth inhibition, 48 h

These recorded examples may help you get a feel for the data.
O=C1C=CC(=O)c2c(O)c(N[C@@H](Cc3ccccc3)C(=O)OCc3ccccc3)c(Cl)c(O)c21: 4.42 µM
O=[N+]([O-])c1ccc(N=NN2CCCC2)cc1: > 100 µM
NCCCc1ccc2oc3ccccc3c2c1: 29.7 µM
CCOc1ccc(NC(=O)CC2SC(N)=NC2=O)cc1 (stereo not drawn): > 100 µM
CC1CC2(CC[C@@H]1O)OCCO2 (stereo partly drawn): > 100 µM
O=C1CC(CC(OCc2ccccc2)C(COCc2ccccc2)OCc2ccccc2)CC(=O)N1 (stereo not drawn): > 100 µM
Cc1cc(NS(=O)(=O)c2ccc(Nc3c4ccccc4nc4ccc(C(=O)Nc5ccc(S(=O)(=O)N=C(N)N)cc5)cc34)cc2)no1: > 100 µM
COC(=O)[C@@H]1CCCN1C(=O)[C@@H]1CCCN1C(=O)[C@@H](Cc1c[nH]c2ccccc12)NC(=S)Nc1cc(C(F)(F)F)cc(C(F)(F)F)c1: > 100 µM
Clc1ncnc2c1nc(C#Cc1ccccc1)n2Cc1ccccc1: > 100 µM
O=C1C(=O)N(C2C3CC4CC(C3)CC2C4)C(=O)C(=O)C1c1nc2ccccc2o1 (stereo not drawn): > 100 µM

Tell us which TGI value is on record for CCOC(=O)C(O)(NC(=O)Nc1ccc(F)cc1)C(F)(F)F (stereo not drawn)
> 100 µM

Tell us which TGI value is on record for `COc1cc(/C=C(/c2ccccc2)[N+](=O)[O-])c(OC)c2c1OCO2`
3 µM

Tell us which TGI value is on record for `COc1ccc(NCC(=O)Nn2c(C)nc3ccc(S(=O)(=O)Nc4ccc(OC)cc4)cc3c2=O)cc1`
> 100 µM

---

# System: U251 CNS
# assay-summary: NCI tumour cell line growth inhibition, 48 h
result-type: TGI (µM)
Answer with a number only, understood to be in µM.

These recorded examples may help you get a feel for the data.
C=C[C@]1(C)C=C2C(=O)[C@@]3(O)OC[C@@]4(CCCC(C)(C)C43O)C2(O)C(O)C1 (stereo partly specified): 28.1
C1=NCCOCCN=Cc2ccccc2OCc2cccc(n2)COc2ccccc21: 18.2
CCCCC[C@H]1C/C=C2/C(=O)C(Cl)=C[C@@H]2C/C=C\CCCC(=O)O[C@@H](CCCCC)C/C=C2/C(=O)C(Cl)=C[C@@H]2C/C=C\CCCC(=O)O1: 0.652
O=C(Nc1cc(Cl)c(Cl)cc1Cl)C(=O)C(C(=O)c1ccc(Cl)c(Cl)c1)C1OC(=O)c2ccccc21 (stereo unspecified): 30.9
COc1ccc2c(c1)nc(N)c1c3cccnc3cn21: 14.6
COc1cnc2c(c1)C(=O)c1c-2n(CCCN2CCCC2)c(=O)c2cc(Cl)ccc12: 7.96
Cc1cc(N2CCCC2)nc(N(CCCNc2ccnc3cc(Cl)ccc23)Cc2ccc3c(c2)OCO3)n1: 5.2
CCCCCCCCCCCCC(=O)[O-].CCCCCCCCCCCCC(=O)[O-].CCCCCCCCCCCCC(=O)[O-].CCCCCCCCCCCCC(=O)[O-].[Mo+2].[Mo+2]: 22.6
Cn1cc(-c2ccc3c(c2)CCN3C(=O)Cc2cccc(C(F)(F)F)c2)c2c(N)ncnc21: 17.7
NCCCc1ccc2oc3ccccc3c2c1: 33.4

Tell us which TGI value is on record for `CN(C)c1ccc(/C=C/c2cc[n+](C)c3ccccc23)cc1`
15.9

Tell us which TGI value is on record for `COc1ccc(/C=C(\NC(=O)c2ccccc2)C(=O)NN(C)c2ccnc3cc(Cl)ccc23)cc1OC`
35.4

Tell us which TGI value is on record for `CCOC(=O)c1c(C)n(Cc2ccc(Cl)cc2Cl)c2c1cc1oc(=O)c(=O)n3c(Cc4ccccc4)nc2c13`
6.5

Tell us which TGI value is on record for `S=c1ssc(Sc2ccccn2)c1Cl`
22.9

Tell us which TGI value is on record for CC(=O)Nc1ccc(N2C(=O)/C(=C\c3cccc(Oc4ccccc4)c3)SC2c2ccccc2)cc1 (stereo unspecified)
30.4

Tell us which TGI value is on record for C/C1=C\CC[C@@](C)(O)[C@@H]2CC3[C@@H](OC(=O)C34CC4)[C@@H](O2)[C@H](C)CCC1 (stereo partly specified)
42.7

Tell us which TGI value is on record for `CCCCCCCC(=O)N/N=C/c1ccc(Sc2nccn2C)c([N+](=O)[O-])c1`
32.2

---

# System: OVCAR-3 ovarian
# assay-summary: NCI tumour cell line growth inhibition, 48 h
// values below are reported TGI
Answer with a number only, understood to be in µM.

These recorded examples may help you get a feel for the data.
CN(C)c1ccc(N=Nc2c([O-])ccc3ccccc23)cc1.[C-]#[O+].[C-]#[O+].[Ir]: 45.6
CCCCCCCCCCCC1N=C(N)NC(CCCO)=C1C(=O)OC (stereo unspecified): 9.08

Please look at `COc1ccc(/C=C(\NC(=O)c2ccccc2)C(=O)NN(C)c2ccnc3cc(Cl)ccc23)cc1OC` and tell me its recorded TGI on OVCAR-3 ovarian.
69.7

---

# Test system: NCI-H460 lung
# assay-summary: NCI tumour cell line growth inhibition, 48 h
result-type: TGI (µM)
Answer with a number only, understood to be in µM.

CCCCC[C@H]1C/C=C2/C(=O)C(Cl)=C[C@@H]2C/C=C\CCCC(=O)O[C@@H](CCCCC)C/C=C2/C(=O)C(Cl)=C[C@@H]2C/C=C\CCCC(=O)O1: 1.02
NCCCc1ccc2oc3ccccc3c2c1: 34.1
Cc1c2cnccc2nc2[nH]c3ccncc3c12: 6.06
CCCCCCCC(=O)N/N=C/c1ccc(Sc2nccn2C)c([N+](=O)[O-])c1: 30.5
O=c1cccccc1NCCCCCCCCCNc1cccccc1=O: 27.7

Tell us which TGI value is on record for `Cc1cc(N2CCCC2)nc(N(CCCNc2ccnc3cc(Cl)ccc23)Cc2ccc3c(c2)OCO3)n1`
4.34

Tell us which TGI value is on record for `Cn1cc(-c2ccc3c(c2)CCN3C(=O)Cc2cccc(C(F)(F)F)c2)c2c(N)ncnc21`
19.7

Tell us which TGI value is on record for `O=C(Nc1ccc2c(c1)oc(=O)c1ccccc12)C(Cl)Cl`
92.5

---

// values below are reported TGI
# System: DLD-1 colon
# assay-summary: NCI tumour cell line growth inhibition, 48 h
Answer with a number only, understood to be in µM.

Tell us which TGI value is on record for CC(CCc1ccc2c(c1)c(=N)c1ccc(N)cc1n2O)CC(C)(C)C (stereo not given)
3.5

Tell us which TGI value is on record for `CC(=O)Oc1ccccc1C(=O)C1c2cccc(O)c2C(=O)c2c(O)cccc21`
12.2

Tell us which TGI value is on record for CCC1CN2CCc3cc(OC)c(OC)cc3C2CC1CC1c2cc(OC)c(OC)cc2CCN1C(=O)CNC(=O)OC(C)(C)C (stereo not given)
36.9

Tell us which TGI value is on record for `Cn1c(=O)nc2n(-c3ccc(Cl)cc3Cl)c3ccccc3nc-2c1=O`
24.5

---

// values below are reported TGI
# Tested on: TK-10 renal
# assay-summary: NCI tumour cell line growth inhibition, 48 h
Answer with a number only, understood to be in µM.

CCCCCCCC(=O)N/N=C/c1ccc(Sc2nccn2C)c([N+](=O)[O-])c1: 83.2

Pending compound:
Tell us which TGI value is on record for `COc1ccc2c(c1)C(=O)c1c-2n(CCCN2CCOCC2)c(=O)c2ccccc12`
57.2

---

# Tested on: BT-549 breast
# assay-summary: NCI tumour cell line growth inhibition, 48 h
result-type: GI50

These recorded examples may help you get a feel for the data.
C[C@H](CS(C)(=O)=O)Nc1ncc2cc(Oc3ccc(F)cc3F)c(=O)n(C)c2n1: > 25 µM
Fc1ccc(Nc2nc(NCCNc3ccnc4cc(Cl)ccc34)nc(N3CCOCC3)n2)cc1: 8.67 µM
O=C(NN1C(=O)CSC1c1ccc(Cl)cc1)c1[nH]c2ccc(F)cc2c1-c1ccccc1 (stereo unspecified): 2.09 µM
COc1cc2cc(Oc3ccc(NC(=O)c4ccc(Cl)c(C(F)(F)F)c4)cc3)c(C)nc2cc1OC: 8.86 µM
Nc1nc(Nc2cccc(F)c2)nc2ccccc12: 30.2 µM

Tell us which GI50 value is on record for COc1ccc(/C=C2\CCCC3=C2NC(C)=NC3c2ccc(OC)c(OC)c2)cc1OC (stereo unspecified)
23.7 µM
